# SUBJECT OF TEST: Neu5Ac(a2-6)Gal(b1-4)GlcNAc(b1-3)Gal(b1-4)[Fuc(a1-3)]GlcNAc(b1-3)Gal(b1-4)[Fuc(a1-3)]GlcNAc
# METHOD SUMMARY: glycan array binding signal (z-score within array); higher = stronger binding
# STUDY CONDITIONS: glycan notation: IUPAC condensed, linker removed
Shown is part of a subset that was picked to be rich in the strongest signals.
Exercise: state measured glycan array binding signal (z-score) for each of the binders provided.
Lab note: write the figure by itself, no unit.

Query: Kindly indicate its recorded glycan array binding signal (z-score). Item: MSMEG3662-2a (Mycobacterium smegmatis), A0QYH7_MYCS2 (protein) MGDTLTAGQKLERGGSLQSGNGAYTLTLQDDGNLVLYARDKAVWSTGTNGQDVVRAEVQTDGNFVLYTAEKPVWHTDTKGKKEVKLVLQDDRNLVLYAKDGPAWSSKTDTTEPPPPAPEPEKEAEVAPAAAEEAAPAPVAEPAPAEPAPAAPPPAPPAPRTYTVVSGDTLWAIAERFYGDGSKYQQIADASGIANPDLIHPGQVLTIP
Result: -0.129

Query: For the binder TIM-1 (Mus musculus), AAL35774 (protein) MNQIQVFISGLILLLPGAVDSYVEVKGVVGHPVTLPCTYSTYRGITTTCWGRGQCPSSACQNTLIWTNGHRVTYQKSSRYNLKGHISEGDVSLTIENSVESDSGLYCCRVEIPGWFNDQKVTFSLQVKPEIPTRPPTRPTTTRPTATGRPTTISTRSTHVPTSIRVSTSTPPTSTHTWTHKPEPTTFCPHETTAEVTGIPSHTPTDWNGTVTSSGDTWSNHTEAIPPGKPQKNPTKGFYVGICIAALLLLLLVSTVAITRYILMKRKSASLSVVAFRVSKIEALQNAAVVHSRAEDNIYIVEDRP , report glycan array binding signal (z-score).
Result: -0.125

Query: Return value of glycan array binding signal (z-score) for input EPL1 (Trichoderma atroviride), A0PCX2 (protein) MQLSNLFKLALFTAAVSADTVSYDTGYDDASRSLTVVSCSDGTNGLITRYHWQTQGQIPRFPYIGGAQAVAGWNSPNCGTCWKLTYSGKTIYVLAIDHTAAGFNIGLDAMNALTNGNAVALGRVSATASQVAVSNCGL , no commentary.
Result: -0.291

Data origin, for the record: the supplement of paper PMC8728848
